Data origin: ChEMBL document CHEMBL1142519

- System: Trypanosoma brucei rhodesiense
- method_notes: Antitrypanosomal activity against Trypanosoma brucei rhodesiense STIB 900 infected acute mouse model assessed as cured mouse at 1 mg/kg, ip daily for 4 days
- Type: functional, organism-based
- Set-up: dose 1 mg/kg
Calls of active or inactive are those of the source. No cut-off for these calls is given here.
Permitted responses: active, inactive

(Q) Entry CC(C)NC(=N)c1ccc(-c2cc3cc(C(=N)NC(C)C)cc(O)c3o2)cc1 : call = ?
(A) inactive

(Q) Name the outcome recorded for COc1cc(C(=N)N)cc2cc(-c3ccc(C(=N)N)cc3)oc12 in the assay.
(A) inactive

(Q) Assay outcome for Nc1nc(N)nc(Nc2ccc([As]3SCC(CO)S3)cc2)n1 (stereo not given) [MELARSOPROL] : what was it?
(A) active

(Q) Outcome? CC(C)NC(=N)c1ccc(-c2cc3cc(C(=N)NC(C)C)ccc3o2)c(O)c1
(A) inactive

(Q) Recorded test outcome, item CC(C)NC(=N)c1ccc(-c2cc3cc(C(=N)NC(C)C)ccc3o2)cc1
(A) inactive

* * *

- method_notes: Selectivity index, ratio of IC50 for rat L6 cells to IC50 for Leishmania donovani MHOM/SD/62/1S-CL2D
- Format: toxicity, cell-based
- condition_set: read-out: Ratio IC50
endpoint_name: selectivity ratio
Just the number, please.

(Q) Give its selectivity ratio value. Item: N=C(N)c1cccc(-c2cc3cc(C(=N)N)ccc3o2)c1
(A) 4

(Q) For the molecule COc1cc(C(=N)N)ccc1-c1cc2cc(C(=N)N)ccc2o1 , what selectivity ratio is on record?
(A) 80

(Q) Param item = N=C(N)c1ccc(O)c(-c2cc3ccc(C(=N)N)cc3o2)c1 ; retrieve measured selectivity ratio.
(A) 4

(Q) Reported selectivity ratio, molecule N=C(N)c1ccc(-c2cc3ccc(C(=N)N)cc3o2)cc1 : ____
(A) 0.3

* * *

- System: Trypanosoma brucei rhodesiense
- method_notes: Antitrypanosomal activity against Trypanosoma brucei rhodesiense STIB 900 infected acute mouse model assessed as survival time at 10 mg/kg, ip
- Format: functional
- condition_set: route intraperitoneal
endpoint_name: Survival

(Q) Reported Survival for Oc1cc(C2=NCCN2)cc2cc(-c3ccc(C4=NCCN4)cc3)oc12 : what is it?
(A) >51.3 days

(Q) Tell me the measured Survival of CC(C)NC(=N)c1ccc(-c2cc3cc(C(=N)NC(C)C)ccc3o2)c(O)c1 , please.
(A) 26.8 days

(Q) Look at this molecule and give its reported Survival. CC(C)NC(=N)c1ccc(-c2cc3cc(C(=N)NC(C)C)cc(O)c3o2)cc1
(A) >36.3 days

(Q) Reported Survival, molecule N=C(N)c1ccc(-c2cc3cc(C(=N)N)cc(O)c3o2)c(O)c1 : ____
(A) >49.5 days

(Q) Which Survival value is on record for CC(C)NC(=N)c1ccc(-c2cc3ccc(C(=N)NC(C)C)cc3o2)c(O)c1 ?
(A) >51.8 days

* * *

- System: Trypanosoma brucei rhodesiense
- method_notes: Antitrypanosomal activity against Trypanosoma brucei rhodesiense STIB 900 infected acute mouse model assessed as survival time at 10 mg/kg, ip
- Assay type: functional
- condition_set: route intraperitoneal
What Survival was measured for each of the following?

(Q) What Survival value was documented for this molecule, N=C(N)c1ccc(-c2cc3cc(C(=N)N)cc(O)c3o2)cc1 ?
(A) >43 days

(Q) What value of measured Survival is listed for Oc1cc(C2=NCCN2)ccc1-c1cc2cc(C3=NCCN3)ccc2o1 ?
(A) 23.5 days

(Q) If you can, please state the reported Survival value of COc1cc(C(=N)N)cc2cc(-c3ccc(C(=N)N)cc3)oc12 .
(A) >44 days

(Q) Please report the recorded Survival for N=C(N)c1ccc(-c2cc3ccc(C(=N)N)cc3o2)cc1 .
(A) >39.5 days

(Q) Recorded Survival of N=C(N)c1ccc(-c2cc3cc(C(=N)N)ccc3o2)c(O)c1 , please.
(A) >55.3 days

(Q) Which Survival is reported for this molecule? N=C(N)c1ccc(O)c(-c2cc3cc(C(=N)N)ccc3o2)c1
(A) >51.5 days

(Q) Dear colleague, I am looking for the recorded Survival of the following molecule: CC(C)NC(=N)c1ccc(-c2cc3cc(C(=N)NC(C)C)cc(O)c3o2)c(O)c1
(A) >50.7 days

* * *

- Tested on: Trypanosoma brucei rhodesiense
- method_notes: Antitrypanosomal activity against Trypanosoma brucei rhodesiense STIB 900 infected acute mouse model assessed as survival time at 1 mg/kg, ip administered daily for 4 days
- Assay type: functional
- condition_set: route intraperitoneal
endpoint_name: Survival

(Q) What Survival value was documented for this molecule, N=C(N)c1ccc(O)c(-c2cc3cc(C(=N)N)ccc3o2)c1 ?
(A) 26 days

(Q) Value lookup for Survival; key = N=C(N)c1ccc(-c2cc3cc(C(=N)N)ccc3o2)c(O)c1
(A) 34.8 days

(Q) Requested field: Survival. Item: N=C(N)c1ccc(-c2cc3ccc(C(=N)N)cc3o2)cc1
(A) 26.5 days

(Q) Which Survival is reported for this molecule? CC(C)NC(=N)c1ccc(-c2cc3cc(C(=N)NC(C)C)ccc3o2)c(O)c1
(A) 18.5 days

(Q) Entry under review: COc1cc(C(=N)N)cc2cc(-c3ccc(C(=N)N)cc3)oc12 . Reported Survival?
(A) 27.3 days

(Q) # get_value(readout='Survival', item= Oc1cc(C2=NCCN2)ccc1-c1cc2cc(C3=NCCN3)ccc2o1 )
(A) 20 days

(Q) Form field: reported Survival of Oc1cc(C2=NCCN2)cc2cc(-c3ccc(C4=NCCN4)cc3)oc12
(A) >39 days

(Q) Suppose we examine the molecule N=C(N)c1ccc(-c2cc3cc(C(=N)N)cc(O)c3o2)cc1 ; what Survival value has been reported?
(A) >30.8 days

(Q) Data request, read-out Survival, for CC(C)NC(=N)c1ccc(-c2cc3cc(C(=N)NC(C)C)cc(O)c3o2)c(O)c1
(A) 26.3 days

(Q) // Survival lookup, key: CC(C)NC(=N)c1ccc(-c2cc3cc(C(=N)NC(C)C)ccc3o2)cc1
(A) 15.3 days

(Q) Need Survival of N=C(N)c1ccc(-c2cc3cc(C(=N)N)cc(O)c3o2)c(O)c1 , thanks.
(A) >33.5 days

* * *

- method_notes: Selectivity index, ratio of IC50 for rat L6 cells to IC50 for chloroquine-resistant Plasmodium falciparum K1
- Type: toxicity, cell-based
- condition_set: read-out: Ratio IC50
endpoint_name: selectivity ratio
# answer = number (no unit)

(Q) Fill blank: measured selectivity ratio of the molecule COc1cc(C2=NCCN2)cc2cc(-c3ccc(C4=NCCN4)cc3)oc12 is ____.
(A) 622

(Q) Would you mind telling me what selectivity ratio value was observed for COc1cc(C2=NCCN2)ccc1-c1cc2cc(C3=NCCN3)ccc2o1 ?
(A) 239

* * *

- method_notes: Selectivity index, ratio of IC50 for rat L6 cells to IC50 for Trypanosoma brucei rhodesiense STIB 900
- Format: toxicity, cell-based
- condition_set: read-out: Ratio IC50
endpoint_name: selectivity ratio
When you answer, write just the number.

(Q) Given the entry N=C(N)c1cccc(-c2cc3ccc(C(=N)N)cc3o2)c1 , report its measured selectivity ratio.
(A) 6240

(Q) Using the record for N=C(N)c1ccc(-c2cc3ccc(C(=N)N)cc3o2)cc1 , report its selectivity ratio.
(A) 114

(Q) selectivity ratio lookup needed for c1cc(C2=NCCN2)cc(-c2cc3ccc(C4=NCCN4)cc3o2)c1 , thanks.
(A) 38

(Q) Give the measured selectivity ratio of N=C(N)c1ccc(-c2cc3cc(C(=N)N)cc(O)c3o2)c(O)c1 .
(A) 117

* * *

- method_notes: Selectivity index, ratio of IC50 for rat L6 cells to IC50 for chloroquine-resistant Plasmodium falciparum K1
- Assay type: toxicity, cell-based
- condition_set: read-out: Ratio IC50
Categorize each record by its selectivity ratio using lower segment (below 300), middle segment (300 to below 5000), upper segment (5000 or more)

(Q) // return the class label for COc1ccc(C(=N)N)cc1-c1cc2cc(C(=N)N)ccc2o1
(A) middle segment

(Q) State the band of COc1ccc(C2=NCCN2)cc1-c1cc2cc(C3=NCCN3)ccc2o1
(A) middle segment

(Q) Hi there! Could you help me figure out the category for COc1cc(C(=N)N)ccc1-c1cc2ccc(C(=N)N)cc2o1 please?
(A) upper segment

(Q) Exam item: assign COc1ccc(C2=NCCN2)cc1-c1cc2ccc(C3=NCCN3)cc2o1 to the correct category.
(A) lower segment

(Q) Which of the defined bands does the recorded selectivity ratio of Oc1ccc(C2=NCCN2)cc1-c1cc2cc(C3=NCCN3)ccc2o1 sit within?
(A) upper segment

(Q) Please let me know in which category the item COc1ccc(C(=N)N)cc1-c1cc2ccc(C(=N)N)cc2o1 belongs.
(A) upper segment

(Q) State the band of N=C(N)c1ccc(-c2cc3ccc(C(=N)N)cc3o2)cc1
(A) lower segment

(Q) Determine which band this molecule sits in: Oc1cc(C2=NCCN2)ccc1-c1cc2cc(C3=NCCN3)ccc2o1
(A) upper segment

(Q) Kindly identify the class of CC(C)NC(=N)c1ccc(-c2cc3ccc(C(=N)NC(C)C)cc3o2)cc1 .
(A) upper segment

(Q) Categorize the following entry: CC(C)NC(=N)c1ccc(-c2cc3cc(C(=N)NC(C)C)ccc3o2)c(O)c1
(A) upper segment

(Q) Kindly identify the class of c1cc(-c2cc3ccc(C4=NCCN4)cc3o2)ccc1C1=NCCN1 .
(A) lower segment

(Q) Lab log: N=C(N)c1ccc(-c2cc3cc(C(=N)N)cc(O)c3o2)c(O)c1 — assign selectivity ratio category
(A) lower segment

(Q) Form field 'band' for c1c[nH]c(-c2ccc(-c3cc4cc(-c5ncc[nH]5)ccc4o3)cc2)n1
(A) lower segment

(Q) Hey, which category is COc1cc(C(=N)N)ccc1-c1cc2cc(C(=N)N)ccc2o1 in, do you know?
(A) upper segment

(Q) Lab note: sort c1ccc2[nH]c(-c3ccc4oc(-c5ccc(C6=NCCN6)cc5)cc4c3)nc2c1 into the matching selectivity ratio band.
(A) lower segment

(Q) Classify this molecule: N=C(N)c1ccc(-c2cc3cc(C(=N)N)cc(O)c3o2)cc1
(A) middle segment

(Q) Pick a category. Item: N=C(N)c1ccc(-c2cc3ccc(C(=N)N)cc3[nH]2)cc1 [DAPI]
(A) lower segment

(Q) Form: Item = COc1cc(C2=NCCN2)ccc1-c1cc2ccc(C3=NCCN3)cc2o1 ; Class = ?
(A) lower segment

(Q) Place this molecule in its band: N=C(N)c1ccc(O)c(-c2cc3ccc(C(=N)N)cc3o2)c1
(A) middle segment

(Q) Pick a category. Item: Oc1cc(C2=NCCN2)ccc1-c1cc2cc(C3=NCCN3)cc(O)c2o1
(A) upper segment

(Q) Which of the defined bands does the recorded selectivity ratio of N=C(N)c1cccc(-c2cc3ccc(C(=N)N)cc3o2)c1 sit within?
(A) upper segment

(Q) Quick check: band for C[C@@H]1CC[C@H]2[C@@H](C)C(=O)O[C@@H]3O[C@@]4(C)CC[C@@H]1[C@]32OO4 [ARTEMISININ]
(A) upper segment

(Q) Band of c1ccc2[nH]c(-c3ccc(-c4cc5cc(-c6nc7ccccc7[nH]6)ccc5o4)cc3)nc2c1 ?
(A) lower segment

(Q) Class for N=C(N)c1cccc(-c2cc3cc(C(=N)N)ccc3o2)c1 ?
(A) middle segment

(Q) State the band of c1cc(C2=NCCN2)cc(-c2cc3ccc(C4=NCCN4)cc3o2)c1
(A) lower segment

(Q) Pick a category. Item: c1ccc2[nH]c(-c3ccc(-c4cc5cc(C6=NCCN6)ccc5o4)cc3)nc2c1
(A) middle segment

(Q) State the band of c1cc(C2=NCCN2)cc(-c2cc3cc(C4=NCCN4)ccc3o2)c1
(A) middle segment

(Q) Quick check: band for Oc1cc(C2=NCCN2)cc2cc(-c3ccc(C4=NCCN4)cc3)oc12
(A) upper segment

(Q) Record N=C(N)c1ccc(-c2cc3cc(C(=N)N)ccc3o2)c(O)c1 — which class?
(A) upper segment
